- Test system: CCRF-CEM leukemia
- experiment.description: NCI-60 one-dose screen, 48 h (100 = growth as untreated, 0 = no growth, -100 = all killed)
- condition.context: 10 µM
About 83,000 compounds went through this panel and 20% of them were active in at least one assay; those are over-represented in the sample as a whole.
Consider the following compounds and their measured growth readings.
Answer in %, number only, no unit symbol.

Some compounds with known growth results, for comparison:
mol.smiles: c1ccc2c(c1)oc1c3c(ccc12)NCCC3
recorded.result: 96
//
mol.smiles: CCN(CC)CCNC(=O)c1ccc(NC(C)=O)cc1
recorded.result: 114
//
mol.smiles: NC(=O)SCC(=O)Nc1ccc(S(N)(=O)=O)cc1
recorded.result: 106
//
mol.smiles: NC1(C(=O)O)CSSC1
recorded.result: 78.5
//
mol.smiles: O=C(Nc1ccncc1)C(=O)c1cn(S(=O)(=O)c2cccc(Cl)c2)c2ccccc12
recorded.result: 72.4
//
mol.smiles: COc1ccc(NC(=O)Cc2nc3nc4sc(C)c(C)c4c(=O)n3[nH]2)cc1
recorded.result: 90.4
//
mol.smiles: Cc1cccc2c1O/C(=C\c1ccc([N+](=O)[O-])o1)C2=O
recorded.result: -26.4
//
mol.smiles: O=C(Nc1cccc(Br)c1)c1cc(=O)[nH]c2ccccc12
recorded.result: 84.9
//
mol.smiles: O=C1/C(=C\c2ccc(Br)cc2)CN(C(=O)c2ccccc2F)C/C1=C\c1ccc(Br)cc1
recorded.result: -10.4
//
mol.smiles: Cc1ccc(-c2n[nH]c(=O)c3noc(-c4ccc(C)cc4)c23)cc1
recorded.result: 17.5

// next entry
(Q) What value of measured growth is listed for COc1cc(C(=C2O[C@@H]([C@H]3COC(C)(C)O3)[C@H]3OC(C)(C)O[C@@H]23)c2cc(OC)c(OC)c(OC)c2)cc(OC)c1OC ?
(A) 103
